Tested on: RPMI-8226
Assay: NCI tumour cell line growth inhibition, 48 h
Active and inactive are the calls of the source. Cut-off read from the data, not from the text of the source: active = GI50 up to about 1.1 µM and inactive = higher.
Labels: active, inactive

[
  {
    "MOLECULE": "C=CCC1(C#N)C(=S)NC2=C(C(=O)CC(C)(C)C2)C1c1ccccc1 (stereo not given)",
    "CLASS_NAME": "inactive"
  },
  {
    "MOLECULE": "O=C1CC(O)c2c1csc2Br (stereo not given)",
    "CLASS_NAME": "inactive"
  },
  {
    "MOLECULE": "CC1Cc2c(Br)nc(N)nc2NC1=O (stereo not given)",
    "CLASS_NAME": "inactive"
  },
  {
    "MOLECULE": "COc1ccc([C@H](NC(=O)c2ccccc2)[C@@H](O)C(=O)O[C@H]2C[C@@]3(O)C(OC(=O)c4ccccc4)C4[C@](C)(C(=O)[C@H](OC(C)=O)C(=C2C)C3(C)C)[C@@H](O)C[C@H]2OC[C@@]42OC(C)=O)cc1 (stereo not given in full)",
    "CLASS_NAME": "active"
  },
  {
    "MOLECULE": "CSC1=N/C(=C\\c2ccc(Cl)cc2)C(=O)N1CN1CCCCC1",
    "CLASS_NAME": "inactive"
  },
  {
    "MOLECULE": "O=C(OC[C@H]1C[C@H]2C(=O)OCCC[C@H]2O1)c1ccccc1",
    "CLASS_NAME": "inactive"
  },
  {
    "MOLECULE": "S=c1[nH]c(=S)c2nnn(-c3ccccc3)c2[nH]1",
    "CLASS_NAME": "inactive"
  },
  {
    "MOLECULE": "Cc1c(Cl)ccc2c1NC(=O)C2(O)CC(=O)c1ccc(Cl)cc1Cl (stereo not given)",
    "CLASS_NAME": "inactive"
  },
  {
    "MOLECULE": "C/C1=C/C2=CC(C)C[C@@H]2C(=O)[C@]2(C)C(=O)CC(C)(C)[C@H]2CC1=O (stereo not given in full)",
    "CLASS_NAME": "inactive"
  },
  {
    "MOLECULE": "OC(c1cccs1)c1cc2ccccc2s1 (stereo not given)",
    "CLASS_NAME": "inactive"
  }
]

----------
Test system: T47D
Assay: NCI tumour cell line growth inhibition, 48 h
Calls of active or inactive are those of the source. No stated cut-off is given here; in the data, active = GI50 up to about 1.1 µM and inactive = higher.
MEASURED_PARAMETER: GI50

[
  {
    "MOLECULE": "CC(O)(CCCCCl)c1nc2ccccc2s1 (stereo not given)",
    "OBS_VALUE": "29.8 µM (inactive)"
  },
  {
    "MOLECULE": "NNC(=O)Cc1cccnc1",
    "OBS_VALUE": "> 100 µM (inactive)"
  },
  {
    "MOLECULE": "CN(C)c1ccc(/C=C(\\NC(=O)c2ccccc2)C2NC(Cc3c[nH]c4ccccc34)C(=O)O2)cc1 (stereo not given)",
    "OBS_VALUE": "> 54 µM (inactive)"
  },
  {
    "MOLECULE": "Fc1ccc(C(OCCN2CCN(CCCCl)CC2)c2ccc(F)cc2)cc1",
    "OBS_VALUE": "22.3 µM (inactive)"
  },
  {
    "MOLECULE": "Cc1cc(NS(=O)(=O)c2ccc(NC(NC(=O)C(C(F)(F)F)C(F)(F)F)(C(F)(F)F)C(F)(F)F)cc2)no1",
    "OBS_VALUE": "> 100 µM (inactive)"
  }
]

FYI, the data here is from ChEMBL document CHEMBL1201862.
